Where do the numbers come from? From ChEMBL document CHEMBL1127280.

The following molecules are shown together with reported Change in TC values.
species: Rattus norvegicus; assay: Cholesterol lowering activity was assessed in rats expressed as percent change in total cholesterol (TC) in cholic acid-cholesterol-peanut oil fed rats; assay type: functional
Reply with just the number (in %).

Molecule	Change in TC, %
CCCCCCCC/C=C\CCCCCCCC1=NN(c2c(Cl)cccc2Cl)C(=O)C1	-18

Reported Change in TC for `CCCCCCCC/C=C\CCCCCCCC1=NN(c2ccc(C)cc2C)C(=O)C1` : what is it?
-26

Also, `CCCCCCCC/C=C\CCCCCCCC1=NN(c2ccc([N+](=O)[O-])cc2[N+](=O)[O-])C(=O)C1` please.
-26

Param item: `CC(C)c1cccc(C(C)C)c1N1CN(CC(c2ccccc2)c2ccccc2)CC1=O`
-6

Lookup CC(C)c1cccc(C(C)C)c1N1CNC(Cc2ccccc2)C1=O (stereo not given)
-9

###

target: O-acyltransferase (Oryctolagus cuniculus, UniProt G1SFD9); experiment: In vitro Acyl coenzyme A:cholesterol acyltransferase inhibition by incubation with [14C]oleolyl-CoA and intestinal microsomes isolated from cholesterol-fed rabbits.; set-up: species or system Intestine
Sequence (G1SFD9 1-524): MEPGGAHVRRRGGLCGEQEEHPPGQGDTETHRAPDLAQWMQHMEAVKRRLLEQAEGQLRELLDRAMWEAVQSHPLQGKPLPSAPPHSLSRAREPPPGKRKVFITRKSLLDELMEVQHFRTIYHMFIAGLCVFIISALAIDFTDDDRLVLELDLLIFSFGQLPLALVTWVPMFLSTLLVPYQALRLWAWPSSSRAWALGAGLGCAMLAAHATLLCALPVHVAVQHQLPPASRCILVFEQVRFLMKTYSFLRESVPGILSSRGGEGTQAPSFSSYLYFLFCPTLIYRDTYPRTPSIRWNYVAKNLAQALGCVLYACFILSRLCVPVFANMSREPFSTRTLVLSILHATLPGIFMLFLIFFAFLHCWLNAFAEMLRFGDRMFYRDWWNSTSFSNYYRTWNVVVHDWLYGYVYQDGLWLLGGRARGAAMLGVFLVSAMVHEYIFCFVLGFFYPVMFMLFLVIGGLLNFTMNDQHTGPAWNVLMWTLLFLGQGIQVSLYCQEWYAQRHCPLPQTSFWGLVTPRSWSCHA
pIC50: −log10 of the molar value.
Answer Not satisfied if pIC50 is under 5, and Satisfied if it is 5 or more.

// known answers, use as guide
Molecule	Target under test	Group
CC(C)c1cccc(C(C)C)c1N1CN(C(c2ccccc2)c2ccccc2)CC1=O	O-acyltransferase (Oryctolagus cuniculus, UniProt G1SFD9)	Satisfied
CCCCCCCC/C=C\CCCCCCCC1=NN(c2ccc([N+](=O)[O-])cc2[N+](=O)[O-])C(=O)C1	O-acyltransferase (Oryctolagus cuniculus, UniProt G1SFD9)	Satisfied
CC(C)c1cccc(C(C)C)c1N1CNC(C(c2ccccc2)c2ccccc2)C1=O (stereo unspecified)	O-acyltransferase (Oryctolagus cuniculus, UniProt G1SFD9)	Satisfied
CCCCCCCC/C=C\CCCCCCCC1=NN(c2c(Cl)cccc2Cl)C(=O)C1	O-acyltransferase (Oryctolagus cuniculus, UniProt G1SFD9)	Not satisfied
CCCCCCCC/C=C\CCCCCCCC1=NN(c2ccc(F)cc2F)C(=O)C1	O-acyltransferase (Oryctolagus cuniculus, UniProt G1SFD9)	Satisfied

Hi team, for `CCCCCCCC/C=C\CCCCCCCC1=NN(c2ccc(C)cc2C)C(=O)C1` , is the recorded pIC50 at or above 5?
Satisfied

Try this molecule next: CC(C)c1cccc(C(C)C)c1N1CNC(Cc2ccccc2)C1=O (stereo unspecified)
Satisfied

Thanks! And `Cc1cccc(C)c1N1N=C(CC(c2ccccc2)c2ccccc2)CC1=O` ?
Not satisfied

# iterate: `CCCCCCCCCCC1=NN(c2c(C)cccc2C)C(=O)C1`
Satisfied

Record: `CC(C)c1cccc(C(C)C)c1N1CN(CC(c2ccccc2)c2ccccc2)CC1=O`
Satisfied
